Biological target: Aβ1-40 fibers (human)
Assay: SPR
QUANTITY: Kd (nM)
Answers are plain numbers, in nM.

Guide cases for Kd, answers given:
Bench note: what Kd did MS-R 7.4H2 x 7.12L2 Fab (antibody, V domains shown) VH: QLVESGGGLVQPGGSLRLSCAASGFTFSSYAMSWVRQAPGKGLEWVSAINYNGARIYYADSVKGRFTISRDNSKNTLYLQMNSLRAEDTAVYYCARGKGNTHKPYGYVRYFDVWGQGTLVTVSS VL: DIVLTQSPATLSLSPGERATLSCRASQRFFYKYLAWYQQKPGQAPRLLISGSSNRATGVPARFSGSGSGTDFTLTISSLEPEDFAVYYCLQLYNIPNTFGQGTKVEIKR show?
1.4

Further, for MS-R 3.4H1 x 3.4L9 Fab (antibody, V domains shown) VH: QLVESGGGLVQPGGSLRLSCAASGFTFSSYAMSWVRQAPGKGLEWVSAISETSIRKYYADSVKGRFTISRDNSKNTLYLQMNSLRAEDTAVYYCARLTHYARYYRYFDVWGQGTLVTVSS VL: DIVLTQSPATLSLSPGERATLSCRASRRIHVYYLAWYQQKPGQAPRLLIYGASSRATGVPARFSGSGSGTDFTLTISSLEPEDFATYYCQQTYDYPPTFGQGTKVEIKR ?
0.25

Further, for MS-R 7.9H2 x 7.12L2(L1+2) Fab (antibody, V domains shown) VH: QLVESGGGLVQPGGSLRLSCAASGFTFSSYAMSWVRQAPGKGLEWVSAINADGNRKYYADSVKGRFTISRDNSKNTLYLQMNSLRAEDTAVYYCARGKGNTHKPYGYVRYFDVWGQGTLVTVSS VL: DIVLTQSPATLSLSPGERATLSCRASQRFFYKYLAWYQQKPGQAPRLLISGSSNRATGVPARFSGSGSGTDFTLTISSLEPEDFAVYYCLQLYNIPNTFGQGTKVEIKR ?
0.4

Further, for MS-R 7.9H2 x 7.12L1 Fab (antibody, V domains shown) VH: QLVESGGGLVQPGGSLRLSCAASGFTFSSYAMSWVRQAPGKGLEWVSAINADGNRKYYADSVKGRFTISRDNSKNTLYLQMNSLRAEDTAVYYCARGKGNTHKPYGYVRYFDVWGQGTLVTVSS VL: DIVLTQSPATLSLSPGERATLSCRASQYVFRRYLAWYQQKPGQAPRLLISGSSNRATGVPARFSGSGSGTDFTLTISSLEPEDFAVYYCLQLYNIPNTFGQGTKVEIKR ?
1.2

Further, for MS-R 3.4H7 x 3.4L9 Fab (antibody, V domains shown) VH: QLVESGGGLVQPGGSLRLSCAASGFTFSSYAMSWVRQAPGKGLEWVSVISETGKNIYYADSVKGRFTISRDNSKNTLYLQMNSLRAEDTAVYYCARLTHYARYYRYFDVWGQGTLVTVSS VL: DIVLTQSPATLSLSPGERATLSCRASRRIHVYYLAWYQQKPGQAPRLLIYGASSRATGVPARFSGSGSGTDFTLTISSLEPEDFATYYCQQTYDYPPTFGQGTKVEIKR ?
2.66

Further, for MS-R 3.6H5 x 3.6L2 Fab (antibody, V domains shown) VH: QLVESGGGLVQPGGSLRLSCAASGFTFSSYAMSWVRQAPGKGLEWVSAISESGKTKYYADSVKGRFTISRDNSKNTLYLQMNSLRAEDTAVYYCARLTHYARYYRYFDVWGQGTLVTVSS VL: DIVLTQSPATLSLSPGERATLSCRASQFLSRYYLAWYQQKPGQAPRLLIYGASSRATGVPARFSGSGSGTDFTLTISSLEPEDFAVYYCQQTYNYPPTFGQGTKVEIKR ?
1.26

Further, for MS-R 3.3H1 x 3.4L9 Fab (antibody, V domains shown) VH: QLVESGGGLVQPGGSLRLSCAASGFTFSSYAMSWVRQAPGKGLEWVSVISEKSRFIYYADSVKGRFTISRDNSKNTLYLQMNSLRAEDTAVYYCARLTHYARYYRYFDVWGQGTLVTVSS VL: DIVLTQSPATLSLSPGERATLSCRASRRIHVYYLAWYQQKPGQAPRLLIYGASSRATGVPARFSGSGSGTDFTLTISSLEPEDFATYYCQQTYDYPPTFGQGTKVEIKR ?
2.16

Further, for MS-R 7.11H1 x 7.2L1 Fab (antibody, V domains shown) VH: QLVESGGGLVQPGGSLRLSCAASGFTFSSYAMSWVRQAPGKGLEWVSGINAAGFRTYYADSVKGRFTISRDNSKNTLYLQMNSLRAEDTAVYYCARGKGNTHKPYGYVRYFDVWGQGTLVTVSS VL: DIVLTQSPATLSLSPGERATLSCRASQYVDRTYLAWYQQKPGQAPRLLIYGASSRATGVPARFSGSGSGTDFTLTISSLEPEDFATYYCQQIYSFPHTFGQGTKVEIKR ?
1.75

For every listed record, write down its Kd.
1. MS-R 7.11H2 x 7.9L1(L1) Fab (antibody, V domains shown) VH: QLVESGGGLVQPGGSLRLSCAASGFTFSSYAMSWVRQAPGKGLEWVSAINANGYKKYYADSVKGRFTISRDNSKNTLYLQMNSLRAEDTAVYYCARGKGNTHKPYGYVRYFDVWGQGTLVTVSS VL: DIVLTQSPATLSLSPGERATLSCRASQRLSPRYLAWYQQKPGQAPRLLIYGASSRATGVPARFSGSGSGTDFTLTISSLEPEDFATYYCLQIYNMPITFGQGTKVEIKR
2. MS-R 7.11H2 x 7.2L1(L1) Fab (antibody, V domains shown) VH: QLVESGGGLVQPGGSLRLSCAASGFTFSSYAMSWVRQAPGKGLEWVSAINANGYKKYYADSVKGRFTISRDNSKNTLYLQMNSLRAEDTAVYYCARGKGNTHKPYGYVRYFDVWGQGTLVTVSS VL: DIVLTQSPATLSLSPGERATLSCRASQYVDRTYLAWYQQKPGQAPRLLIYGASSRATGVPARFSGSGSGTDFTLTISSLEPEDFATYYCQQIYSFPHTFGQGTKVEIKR

0.1
1
